Reported pIC50 values follow for various sequences
biological target: A*6802 (Homo sapiens, UniProt P04439, A269V/D140Y/D185E/E176V/E277Q/E87N/F33Y/G231S/I121R/I166T/I218V/L180W/L300P/L318F/N151K/P208A/P217A/Q86R/R138H/R169H/S129P/T345S/V36M); assay: biochemical; assay type: binding
pIC50: −log10 of the molar value. No end group written: not given here.

- SEQUENCE STRING: "RLTVTTITVYA [Peptide 9013.0305]"
  INEQUALITY SYMBOL: "="
  pIC50: 7.28
- SEQUENCE STRING: "KLMSQLLNI [Peptide 1578.29]"
  INEQUALITY SYMBOL: "<"
  pIC50: 4.70
- SEQUENCE STRING: "RLLTLLSVT [Peptide 9013.0076]"
  INEQUALITY SYMBOL: "<"
  pIC50: 4.70
- SEQUENCE STRING: "VAWDSVYYM [Peptide 1578.46]"
  INEQUALITY SYMBOL: "="
  pIC50: 5.29
- SEQUENCE STRING: "LIQPFILYA [Peptide 1578.07]"
  INEQUALITY SYMBOL: "="
  pIC50: 5.06
- SEQUENCE STRING: "QLSNGNRTLV [Peptide 9013.0229]"
  INEQUALITY SYMBOL: "<"
  pIC50: 4.70
- SEQUENCE STRING: "GMGCTGWFEV [Peptide 1578.19]"
  INEQUALITY SYMBOL: "="
  pIC50: 5.88
- SEQUENCE STRING: "FLQGAIISFV [Peptide 1578.27]"
  INEQUALITY SYMBOL: "="
  pIC50: 7.07
- SEQUENCE STRING: "SLQELFIPNI [Peptide 9013.0182]"
  INEQUALITY SYMBOL: "="
  pIC50: 5.13
- SEQUENCE STRING: "IIYPNASLV [Peptide 9013.0029]"
  INEQUALITY SYMBOL: "="
  pIC50: 6.39
- SEQUENCE STRING: "TLQDVSLEV [Peptide 1578.45]"
  INEQUALITY SYMBOL: "="
  pIC50: 5.57
- SEQUENCE STRING: "ALFNVQEGV [Peptide 1578.41]"
  INEQUALITY SYMBOL: "="
  pIC50: 6.04
- SEQUENCE STRING: "FLSHVKIPV [Peptide 1578.55]"
  INEQUALITY SYMBOL: "="
  pIC50: 7.22
- SEQUENCE STRING: "YVIGTQQAV [Peptide 9013.0024]"
  INEQUALITY SYMBOL: "="
  pIC50: 8.52
- SEQUENCE STRING: "GLQQATPGPA [Peptide 9013.0143]"
  INEQUALITY SYMBOL: "<"
  pIC50: 4.70
- SEQUENCE STRING: "QQHTQELFV [Peptide 9013.0078]"
  INEQUALITY SYMBOL: "<"
  pIC50: 4.70
- SEQUENCE STRING: "YIDDYLRNL [Peptide 1578.39]"
  INEQUALITY SYMBOL: "<"
  pIC50: 4.70
- SEQUENCE STRING: "QLSNGNRTLTV [Peptide 9013.0334]"
  INEQUALITY SYMBOL: "<"
  pIC50: 4.70
- SEQUENCE STRING: "KVTIESTPFNV [Peptide 9013.0265]"
  INEQUALITY SYMBOL: "="
  pIC50: 5.81
- SEQUENCE STRING: "RILQQLLFV [Peptide 1525.09]"
  INEQUALITY SYMBOL: "="
  pIC50: 4.75
- SEQUENCE STRING: "TLGIMIGVLV [Peptide 9013.0251]"
  INEQUALITY SYMBOL: "="
  pIC50: 5.75
- SEQUENCE STRING: "AIFGVNPTI [Peptide 86.0178]"
  INEQUALITY SYMBOL: "="
  pIC50: 5.45
- SEQUENCE STRING: "ALYWFRTAM [Peptide 86.0195]"
  INEQUALITY SYMBOL: "<"
  pIC50: 4.70
- SEQUENCE STRING: "FLSALKLFL [Peptide 1578.17]"
  INEQUALITY SYMBOL: "="
  pIC50: 5.67
- SEQUENCE STRING: "TVNNSGSYV [Peptide 9013.0064]"
  INEQUALITY SYMBOL: "="
  pIC50: 7.36
- SEQUENCE STRING: "ILYPNASLL [Peptide 9013.0030]"
  INEQUALITY SYMBOL: "="
  pIC50: 4.83
- SEQUENCE STRING: "LLLVHNLPQHV [Peptide 9013.0275]"
  INEQUALITY SYMBOL: "<"
  pIC50: 4.70
- SEQUENCE STRING: "GMIDDVTPI [Peptide 1578.24]"
  INEQUALITY SYMBOL: "<"
  pIC50: 4.70
- SEQUENCE STRING: "ITIGVLVGV [Peptide 9013.0109]"
  INEQUALITY SYMBOL: "="
  pIC50: 8.05
- SEQUENCE STRING: "QLSNGNRTV [Peptide 9013.0095]"
  INEQUALITY SYMBOL: "<"
  pIC50: 4.70
- SEQUENCE STRING: "RILQRLLFV [Peptide 1525.27]"
  INEQUALITY SYMBOL: "<"
  pIC50: 4.70
- SEQUENCE STRING: "ILNIIQNDT [Peptide 9013.0033]"
  INEQUALITY SYMBOL: "<"
  pIC50: 4.70
- SEQUENCE STRING: "GTQQATPGPV [Peptide 9013.0142]"
  INEQUALITY SYMBOL: "<"
  pIC50: 4.70
- SEQUENCE STRING: "KILQQLLFI [Peptide 1525.21]"
  INEQUALITY SYMBOL: "<"
  pIC50: 4.70
- SEQUENCE STRING: "TQQATPGPV [Peptide 9013.0027]"
  INEQUALITY SYMBOL: "<"
  pIC50: 4.70
- SEQUENCE STRING: "PQYSWRINGV [Peptide 9013.0235]"
  INEQUALITY SYMBOL: "<"
  pIC50: 4.70
- SEQUENCE STRING: "KLITVSAEL [Peptide 9013.0084]"
  INEQUALITY SYMBOL: "<"
  pIC50: 4.70
- SEQUENCE STRING: "KLLEKLLCI [Peptide 1578.15]"
  INEQUALITY SYMBOL: "<"
  pIC50: 4.70
- SEQUENCE STRING: "TLVLFIAKI [Peptide 9013.0106]"
  INEQUALITY SYMBOL: "="
  pIC50: 4.89
- SEQUENCE STRING: "RQIIGYVIGV [Peptide 9013.0139]"
  INEQUALITY SYMBOL: "="
  pIC50: 7.57
- SEQUENCE STRING: "TLHDLCQAL [Peptide 1481.47]"
  INEQUALITY SYMBOL: "<"
  pIC50: 4.70
- SEQUENCE STRING: "SLQDSQFEL [Peptide 1578.35]"
  INEQUALITY SYMBOL: "="
  pIC50: 5.05
- SEQUENCE STRING: "GLFQQSTQEL [Peptide 9013.0176]"
  INEQUALITY SYMBOL: "<"
  pIC50: 4.70
- SEQUENCE STRING: "NLAEGKEVL [Peptide 9013.0016]"
  INEQUALITY SYMBOL: "<"
  pIC50: 4.70
- SEQUENCE STRING: "ALDGNDISV [Peptide 1578.33]"
  INEQUALITY SYMBOL: "<"
  pIC50: 4.70
- SEQUENCE STRING: "LLFWNPPTT [Peptide 9013.0007]"
  INEQUALITY SYMBOL: "<"
  pIC50: 4.70
- SEQUENCE STRING: "SLLTFWNPPV [Peptide 9013.0118]"
  INEQUALITY SYMBOL: "="
  pIC50: 7.62
- SEQUENCE STRING: "RTLQLLLFV [Peptide 1525.25]"
  INEQUALITY SYMBOL: "="
  pIC50: 5.49
- SEQUENCE STRING: "ILYAHIQCL [Peptide 1578.08]"
  INEQUALITY SYMBOL: "="
  pIC50: 4.79
- SEQUENCE STRING: "ILIGVLVGVAL [Peptide 9013.0347]"
  INEQUALITY SYMBOL: "<"
  pIC50: 4.70
- SEQUENCE STRING: "TLNNSGSYT [Peptide 9013.0065]"
  INEQUALITY SYMBOL: "<"
  pIC50: 4.70
- SEQUENCE STRING: "VLAEAMGQV [Peptide 1539.05]"
  INEQUALITY SYMBOL: "="
  pIC50: 6.77
- SEQUENCE STRING: "YLIGTQQAT [Peptide 9013.0025]"
  INEQUALITY SYMBOL: "="
  pIC50: 5.08
- SEQUENCE STRING: "TTVTTITVYV [Peptide 9013.0192]"
  INEQUALITY SYMBOL: "="
  pIC50: 7.77
- SEQUENCE STRING: "LQLPPLERLTV [Peptide 73.0158]"
  INEQUALITY SYMBOL: "<"
  pIC50: 4.70
- SEQUENCE STRING: "HLQVLFIAKI [Peptide 9013.0244]"
  INEQUALITY SYMBOL: "<"
  pIC50: 4.70

Cited source for all entries: patent US9340577B2
